Source of measurements: patent US12691070B2

In this section we review reported In vitro Viability HepG2 values for a set of compounds.
Test system: Hep G2 cells
Assay: In vitro toxicity (CellTiter-Glo cell viability), Hep G2;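 also: percent of untreated cells luminescence signal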
Assay type: cell-based
Details: mRNA (SEQ ID NO: 2) LNP, 1 μg/mL, 72 hours post transfection
Write the answer as a number in %, unit excluded.

As a guide, the following entries are already answered.
[
  {
    "COMPOUND": "CCCCCCCCC(CCCCCCCC)OC(=O)CCCCCCCN(CCCCCCCCOC(=O)C(CCCCCC)CCCCCCCC)CCOC(=O)NCCN1CCCC1 (stereo not shown)",
    "EXPERIMENTAL TARGET": "Hep G2 cells",
    "In vitro Viability HepG2 [%]": 128
  },
  {
    "COMPOUND": "CCCCCCCCCCC(CCCCCCCC)COC(=O)CCCCCN(CCCCCC(=O)OCC(CCCCCCCC)CCCCCCCCCC)CCCOC(=O)NCCN1CCCC1 (stereo not shown)",
    "EXPERIMENTAL TARGET": "Hep G2 cells",
    "In vitro Viability HepG2 [%]": 94
  }
]

Return the recorded In vitro Viability HepG2 value; entry: CCCCCCCCCCCOC(=O)CCCCCN(CCCCCCCC(=O)OC(CCCCCCCC)CCCCCCCC)CCOC(=O)NCCN1CCCCC1
93

---

Test system: Hep G2 cells
Experiment: In vitro toxicity (CellTiter-Glo cell viability), Hep G2;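 also: percent of untreated cells luminescence signal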
Assay type: cell-based
Details: cirRNA (SEQ ID NO: 1) LNPs; Hep G2 cells
Description: RAW 264.7 and Hep G2 cells were transfected with 1 μg/mL RNA-LNPs. At 72 hours post transfection, cell viability was determined with the CellTiter-Glo® reagent kit, according to the kit protocol, measured by a luminometer. The cell viability was calculated according to the following formula: […]
Note to self: In vitro Viability HepG2 under 80% means 1.0, ties and anything higher get 0.0.

Example entries and their recorded answers appear below.
[
  {
    "MOLECULE": "CCCCCCCC/C=C\\CCCCCCCCN(CCCCCCCCOC(=O)C(CCCCCC)CCCCCCCC)CCOC(=O)NCCCN(C)C (centres unmarked) [Lipid 216]",
    "ASSIGNED CLASS": 1.0
  },
  {
    "MOLECULE": "CCCCCCCCCCCOC(=O)CCCCCN(CCCCCC(=O)OCCCCCCCCCCC)CCOC(=O)NCCN1CCN(C)CC1 [Lipid 156]",
    "ASSIGNED CLASS": 0.0
  }
]

# TODO verify In vitro Viability HepG2 < 80% strictly for this molecule: CCCCCCCCC(CCCCCC)C(=O)OCCCCCCCCN(CCCCCCCCOC(=O)C(CCCCCC)CCCCCCCC)CCCOC(=O)NCCN1CCCCCC1 (centres unmarked) [Lipid 383]
0.0

# TODO verify In vitro Viability HepG2 < 80% strictly for this molecule: CCCCCCCCCCCOC(=O)CCCCCN(CCCCCCCCOC(=O)C(CCCCCC)CCCCCCCC)CCOC(=O)NCCN1CCN(C)CC1 (centres unmarked) [Lipid 222]
1.0

# TODO verify In vitro Viability HepG2 < 80% strictly for this molecule: CCCCCCCCCC(=O)OCCCCCCCN(CCCCCCCOC(=O)CCCCCCCCC)CCOC(=O)NCc1ncc[nH]1 [Lipid 176]
0.0

# TODO verify In vitro Viability HepG2 < 80% strictly for this molecule: CCCCCCCCCC(=O)OCCCCCCCN(CCCCCCCCOC(=O)C(CCCCCC)CCCCCCCC)CCOC(=O)NCCN1CCN(C)CC1 (centres unmarked) [Lipid 200]
0.0

# TODO verify In vitro Viability HepG2 < 80% strictly for this molecule: CCCCCCCCCC(=O)OCCCCCCCN(CCCCCCCCOC(=O)C(CCCCCC)CCCCCCCC)CCCOC(=O)NCc1ncc[nH]1 (centres unmarked) [Lipid 360]
0.0

# TODO verify In vitro Viability HepG2 < 80% strictly for this molecule: CCCCCCCCC(CCCCCCCC)OC(=O)CCCCCCCN(CCCCCCCCOC(=O)C(CCCCCC)CCCCCCCC)CCOC(=O)NCCCn1ccnc1 (centres unmarked) [Lipid 147]
0.0

---

Tested on: BALB/C mice
Assay: Local tolerance determination by footpad injection
Type: in vivo
Conditions: cirRNA (SEQ ID NO: 1) LNP, 0.175 mg*kg-1 subcutaneous into the footpad, 24 hours post minus prior
QUANTITY NAME: Footpad Thickness (24 h−0 h, mm)
Write the answer as a number in mm, unit excluded.

As a guide, the following entries are already answered.
[
  {
    "MOLECULE": "CCCCCCCCC(CCCCCCCC)OC(=O)CCCCCCCN(CCCCCCCCOC(=O)C(CCCCCC)CCCCCCCC)CCCOC(=O)NCCCN(C)C (stereo not shown) [Lipid 348]",
    "EXPERIMENTAL TARGET": "BALB/C mice",
    "Footpad Thickness (24 h−0 h, mm)": 0.78
  },
  {
    "MOLECULE": "CCCCC/C=C\\C/C=C\\CCCCCCCCN(CCCCCC(=O)OCC(CCCCCCCC)CCCCCCCCCC)CCOC(=O)NCCN(C)C (stereo not shown) [Lipid 75]",
    "EXPERIMENTAL TARGET": "BALB/C mice",
    "Footpad Thickness (24 h−0 h, mm)": 0.85
  },
  {
    "MOLECULE": "CCCCCCCCC(CCCCCCCC)OC(=O)CCCCCCCN(CCCCCCCCOC(=O)C(CCCCCC)CCCCCCCC)CCCOC(=O)NCCN1CCCCC1 (stereo not shown) [Lipid 351]",
    "EXPERIMENTAL TARGET": "BALB/C mice",
    "Footpad Thickness (24 h−0 h, mm)": 0.68
  },
  {
    "MOLECULE": "CCCCCCCCCCC(CCCCCCCC)COC(=O)CCCCCN(CCCCCC(=O)OCC(CCCCCCCC)CCCCCCCCCC)CCOC(=O)NCCN1CCCCC1 (stereo not shown) [Lipid 169]",
    "EXPERIMENTAL TARGET": "BALB/C mice",
    "Footpad Thickness (24 h−0 h, mm)": 0.84
  },
  {
    "MOLECULE": "CCCCCCCCCC(=O)OCCCCCCCN(CCCCCCCCOC(=O)C(CCCCCC)CCCCCCCC)CCOC(=O)NCCN(C)C (stereo not shown) [Lipid 197]",
    "EXPERIMENTAL TARGET": "BALB/C mice",
    "Footpad Thickness (24 h−0 h, mm)": 0.08
  }
]

Return the recorded Footpad Thickness (24 h−0 h, mm) value; entry: CCCCCCCCCCC(CCCCCCCC)COC(=O)CCCCCN(CCCCCC(=O)OCC(CCCCCCCC)CCCCCCCCCC)CCCOC(=O)NCCN1CCCCC1 (stereo not shown) [Lipid 370]
0.50

Return the recorded Footpad Thickness (24 h−0 h, mm) value; entry: CCCCCCCCC(CCCCCC)C(=O)OCCCCCCCCN(CCCCCCCCOC(=O)C(CCCCCC)CCCCCCCC)CCCOC(=O)NCCN1CCCCCC1 (stereo not shown) [Lipid 383]
0.60

Return the recorded Footpad Thickness (24 h−0 h, mm) value; entry: CCCCC/C=C\C/C=C\CCCCCCCCN(CCCCCCCC(=O)OC(CCCCCCCC)CCCCCCCC)CCOC(=O)NCCCN(CC)CC [Lipid 131]
1.17

Return the recorded Footpad Thickness (24 h−0 h, mm) value; entry: CCCCCCCCCCC(CCCCCCCC)COC(=O)CCCCCN(CCCCCC(=O)OCC(CCCCCCCC)CCCCCCCCCC)CCOC(=O)NCCN1CCCC1 (stereo not shown) [Lipid 168]
1.13

Return the recorded Footpad Thickness (24 h−0 h, mm) value; entry: CCCCC/C=C\C/C=C\CCCCCCCCN(CCCCCCCC(=O)OC(CCCCCCCC)CCCCCCCC)CCCOC(=O)NCCN1CCCCC1 [Lipid 278]
0.63

Return the recorded Footpad Thickness (24 h−0 h, mm) value; entry: CCCCCCCCC(CCCCCCCC)OC(=O)CCCCCCCN(CCCCCCCCOC(=O)C(CCCCCC)CCCCCCCC)CCCOC(=O)NCCN1CCCC1 (stereo not shown) [Lipid 350]
0.55

Return the recorded Footpad Thickness (24 h−0 h, mm) value; entry: CCCCC/C=C\C/C=C\CCCCCCCCN(CCCCCCCC(=O)OC(CCCCCCCC)CCCCCCCC)CCCOC(=O)NCCCn1ccnc1 [Lipid 276]
0.51

Return the recorded Footpad Thickness (24 h−0 h, mm) value; entry: CCCCCCCCCCC(CCCCCCCC)COC(=O)CCCCCN(CCCCCC(=O)OCC(CCCCCCCC)CCCCCCCCCC)CCCOC(=O)NCCN1CCCC1 (stereo not shown) [Lipid 369]
0.57

---

Tested on: Alanine Aminotransferase (ALT)
Test: Liver enzyme elevation in serum, ALT
Assay type: in vivo
Conditions: cirRNA (SEQ ID NO: 1) LNPs; BALB/C mice; intravenous 0.5 MPK; 2 hours
Note to self: ALT in Sera (IU/L) 2 hours After 0.5 MPK Injection under 100 IU/L means YES, ties and anything higher get NO.

[
  {
    "COMPOUND": "CCCCC/C=C\\C/C=C\\CCCCCCCCN(CCCCCCCC(=O)OC(CCCCCCCC)CCCCCCCC)CCOC(=O)NCCCN(CC)CC [Lipid 131]",
    "ASSIGNED CLASS": "YES"
  },
  {
    "COMPOUND": "CCCCCCCCCCC(CCCCCCCC)COC(=O)CCCCCN(CCCCCCCCOC(=O)C(CCCCCC)CCCCCCCC)CCOC(=O)NCCN(C)C (stereo not shown) [Lipid 51]",
    "ASSIGNED CLASS": "YES"
  }
]

# TODO verify ALT in Sera (IU/L) 2 hours After 0.5 MPK Injection < 100 IU/L strictly for this compound: CCCCCCCCC(CCCCCCCC)OC(=O)CCCCCCCN(CCCCCCCCOC(=O)C(CCCCCC)CCCCCCCC)CCOC(=O)NCCN1CCCC1 (stereo not shown) [Lipid 148]
YES

# TODO verify ALT in Sera (IU/L) 2 hours After 0.5 MPK Injection < 100 IU/L strictly for this compound: CCCCCCCCCCC(CCCCCCCC)COC(=O)CCCCCN(CCCCCC(=O)OCC(CCCCCCCC)CCCCCCCCCC)CCOC(=O)NCCN1CCCCC1 (stereo not shown) [Lipid 169]
YES

# TODO verify ALT in Sera (IU/L) 2 hours After 0.5 MPK Injection < 100 IU/L strictly for this compound: CCCCCCCCC(CCCCCC)C(=O)OCCCCCCCCN(CCCCCCCCOC(=O)C(CCCCCC)CCCCCCCC)CCCOC(=O)NCc1ncc[nH]1 (stereo not shown) [Lipid 375]
NO

# TODO verify ALT in Sera (IU/L) 2 hours After 0.5 MPK Injection < 100 IU/L strictly for this compound: CCCCCCCCCCCOC(=O)CCCCCN(CCCCCCCC(=O)OC(CCCCCCCC)CCCCCCCC)CCOC(=O)NCCN1CCCCC1 [Lipid 165]
YES

# TODO verify ALT in Sera (IU/L) 2 hours After 0.5 MPK Injection < 100 IU/L strictly for this compound: CCCCC/C=C\C/C=C\CCCCCCCCN(CCCCCCCC(=O)OC(CCCCCCCC)CCCCCCCC)CCCOC(=O)NCCN(C)C [Lipid 270]
NO

# TODO verify ALT in Sera (IU/L) 2 hours After 0.5 MPK Injection < 100 IU/L strictly for this compound: CCCCC/C=C\C/C=C\CCCCCCCCN(CCCCCCCC(=O)OC(CCCCCCCC)CCCCCCCC)CCCOC(=O)NCCN1CCCCC1 [Lipid 278]
NO

# TODO verify ALT in Sera (IU/L) 2 hours After 0.5 MPK Injection < 100 IU/L strictly for this compound: CCCCCCCCCCC(CCCCCCCC)COC(=O)CCCCCN(CCCCCC(=O)OCC(CCCCCCCC)CCCCCCCCCC)CCOC(=O)NCCN1CCCC1 (stereo not shown) [Lipid 168]
YES

# TODO verify ALT in Sera (IU/L) 2 hours After 0.5 MPK Injection < 100 IU/L strictly for this compound: CCCCCCCCCC(=O)OCCCCCCCN(CCCCCCCCOC(=O)C(CCCCCC)CCCCCCCC)CCOC(=O)NCCN(C)C (stereo not shown) [Lipid 197]
NO

# TODO verify ALT in Sera (IU/L) 2 hours After 0.5 MPK Injection < 100 IU/L strictly for this compound: CCCCC/C=C\C/C=C\CCCCCCCCN(CCCCCC(=O)OCC(CCCCCCCC)CCCCCCCCCC)CCOC(=O)NCCN(C)C (stereo not shown) [Lipid 75]
NO
